Method notes: BSK_SAg_PBMCCytotoxicity: PBMC Cytotoxicity Assessment in the BioMAP Diversity Plus: SAg Assay (AID 2283093);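 also: PBMC viability measured as Alamar Blue reduction fluorescence at 546/580 nm; fitted both ways against DMSO so a hit may be loss or gain of signal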
Test context: primary human HUVEC with PBMC
Active and inactive are the calls of the source. The calls were made as follows: active = hit-call score of the fitted dose curve at least 0.9, where 1 is the maximum; inactive = score below 0.9.
Outcome codes: active, inactive

CCCCC(CC)COC(=O)c1ccc(C(=O)OCC(CC)CCCC)c(C(=O)OCC(CC)CCCC)c1 (configuration not stated)    inactive
Clc1ccc(C(c2ccc(Cl)cc2)C(Cl)(Cl)Cl)cc1    active
Nc1ccc([N+](=O)[O-])cc1    inactive
c1ccc2c(c1)-c1cccc3cccc-2c13    inactive
CN(C)C(=O)Nc1ccc(Cl)cc1    inactive
O=[N+]([O-])c1ccc(Oc2ccc(Cl)cc2Cl)cc1    inactive
C1=Cc2cccc3cccc1c23    inactive

====

Method notes: ATG_Oct_MLP_CIS: Attagene CIS-FACTORIAL HepG2 Assay for human Octamer-Binding Transcription Factor (Oct) (AID 2282993)
Test context: HepG2 Attagene cis-factorial Oct reporter, mRNA; actives raise or lower the signal
Calls of active or inactive are those of the source. Rule for the calls: active = hit-call score of the fitted dose curve at least 0.9, where 1 is the maximum; inactive = score below 0.9.
Property name: outcome

CC(C)(C)OOC(C)(C)CCC(C)(C)OOC(C)(C)C    inactive
Nc1ccc(Oc2ccc(N)cc2)cc1    inactive
CCCCC(CC)COC(=O)c1ccc(C(=O)OCC(CC)CCCC)c(C(=O)OCC(CC)CCCC)c1 (stereo not drawn)    inactive

====

Read-out: Monocyte Chemoattractant Protein-1 (MCP1), CCL2 (gene 6347)
Method notes: BSK_4H_MCP1: BioMAP Diversity Plus: 4H Assay for Monocyte Chemoattractant Protein-1 (MCP1) Biomarker Activity (AID 2283018)
Test context: primary human endothelial cells (HUVEC); actives raise or lower the signal
Protocol: BSK_4H is a cell-based, multiplexed-readout assay that uses umbilical vein endothelium, a human vascular primary cell, with measurements taken at 24 hours after chemical dosing in a 96-well plate.BSK_4H_MCP1 is an assay component measured in the BSK_4H assay. It measures MCP-1 antibody related to regulation of gene expression using ELISA technology.Data from the assay component BSK_4H_MCP1 was analyzed into 1 assay endpoint. […]
Active and inactive are the calls of the source. Rule for the calls: active = hit-call score of the fitted dose curve at least 0.9, where 1 is the maximum; inactive = score below 0.9.
Property name: outcome

CCN(CC)N=O    inactive
CCC(C)c1ccc(O)cc1 (stereo not drawn)    inactive
COC(=O)Nc1nc2ccccc2[nH]1    inactive

====

Method notes: Tanguay_ZF_120hpf_SNOU_legacy: (Legacy) Oregon State University Tanguay Lab 120 Hour Post-fertilization zebrafish Assay for Snout Malformation (AID 2283637)
Description: Tanguay_ZF_120hpf_legacy is a whole embryo, multiplexed endpoint assay using zebrafish larvae exposed for 120 hours post fertilization on a 96-well plate.Tanguay_ZF_120hpf_SNOU_legacy is one of one assay component(s) measured or calculated from the Tanguay_ZF_120hpf_legacy assay. […] This assay endpoint, Tanguay_ZF_120hpf_SNOU_legacy, was analyzed in the positive analysis fitting direction relative to DMSO as the negative control and baseline of activity. […]
Records with an inconclusive call do not appear. The source made the active and inactive calls. Rule for the calls: active = hit-call score of the fitted dose curve at least 0.9, where 1 is the maximum; inconclusive = response in the unintended direction; inactive = score below 0.9.
Outcome codes: YES (active), NO (inactive)

O=C(Nc1ccccc1)c1ccccc1I    YES
CC(C)(C)C(O)(CCc1ccc(Cl)cc1)Cn1cncn1 (stereo not given)    NO
CO[C@@H]1[C@H](OC(=O)NC(=O)CCl)CC[C@]2(CO2)[C@H]1[C@@]1(C)O[C@@H]1CC=C(C)C    YES
Nc1ccc([N+](=O)[O-])cc1    NO
Cc1ccc(N=C=O)cc1N=C=O    NO
CC(C)COC(=O)c1ccccc1C(=O)OCC(C)C    YES
CS(=O)(=O)NC(=O)c1cc(Oc2ccc(C(F)(F)F)cc2Cl)ccc1[N+](=O)[O-]    NO
c1ccc(C2CO2)cc1 (stereo not given)    NO
CCCCCOC(=O)c1ccccc1C(=O)OCCCCC    NO
OCCCBr    NO
C[C@]12C=CC3=C4CCC(=O)C=C4CC[C@H]3[C@@H]1CC[C@@H]2O    YES
ClC1=C(Cl)[C@]2(Cl)[C@H]3[C@H]([C@@H]4C=C[C@H]3C4)[C@@]1(Cl)C2(Cl)Cl    NO
c1ccc2c(c1)oc1ccccc12    NO
CCC(C)c1ccc(O)cc1 (stereo not given)    NO
O=P(OCCCl)(OCCCl)OCCCl    NO
O=C1CCCO1    NO
c1ccc(N=Nc2ccccc2)cc1    NO
CC(C)(OOC(C)(C)c1ccccc1)c1ccccc1    NO
CC(O)CCO (stereo not given)    NO
COC(=O)c1ccccc1N    NO
O=C(N[C@H](c1ccccc1)[C@@H]1CN2CCC1CC2)c1c(Cl)ccc(C(F)(F)F)c1Cl    NO
Clc1ccc(C(c2ccc(Cl)cc2)C(Cl)(Cl)Cl)cc1    NO
O=C(Oc1ccc(Br)cc1)N1CCN2CCC1CC2    NO
CN(C)[C@@H]1C(=O)C(C(N)=O)=C(O)[C@@]2(O)C(=O)C3=C(O)c4c(O)cccc4[C@@](C)(O)[C@H]3C[C@@H]12    NO
COc1cc(C=O)cc2c1[C@H](COC(N)=O)[C@]1(OC(C)=O)ON2C[C@H]2[C@@H]1N2C(C)=O    YES
